Source listed as patent US20150307520A1.

System tested: p110δ/p85α (Homo sapiens, UniProt O00329)
Sequence (O00329 whole entry): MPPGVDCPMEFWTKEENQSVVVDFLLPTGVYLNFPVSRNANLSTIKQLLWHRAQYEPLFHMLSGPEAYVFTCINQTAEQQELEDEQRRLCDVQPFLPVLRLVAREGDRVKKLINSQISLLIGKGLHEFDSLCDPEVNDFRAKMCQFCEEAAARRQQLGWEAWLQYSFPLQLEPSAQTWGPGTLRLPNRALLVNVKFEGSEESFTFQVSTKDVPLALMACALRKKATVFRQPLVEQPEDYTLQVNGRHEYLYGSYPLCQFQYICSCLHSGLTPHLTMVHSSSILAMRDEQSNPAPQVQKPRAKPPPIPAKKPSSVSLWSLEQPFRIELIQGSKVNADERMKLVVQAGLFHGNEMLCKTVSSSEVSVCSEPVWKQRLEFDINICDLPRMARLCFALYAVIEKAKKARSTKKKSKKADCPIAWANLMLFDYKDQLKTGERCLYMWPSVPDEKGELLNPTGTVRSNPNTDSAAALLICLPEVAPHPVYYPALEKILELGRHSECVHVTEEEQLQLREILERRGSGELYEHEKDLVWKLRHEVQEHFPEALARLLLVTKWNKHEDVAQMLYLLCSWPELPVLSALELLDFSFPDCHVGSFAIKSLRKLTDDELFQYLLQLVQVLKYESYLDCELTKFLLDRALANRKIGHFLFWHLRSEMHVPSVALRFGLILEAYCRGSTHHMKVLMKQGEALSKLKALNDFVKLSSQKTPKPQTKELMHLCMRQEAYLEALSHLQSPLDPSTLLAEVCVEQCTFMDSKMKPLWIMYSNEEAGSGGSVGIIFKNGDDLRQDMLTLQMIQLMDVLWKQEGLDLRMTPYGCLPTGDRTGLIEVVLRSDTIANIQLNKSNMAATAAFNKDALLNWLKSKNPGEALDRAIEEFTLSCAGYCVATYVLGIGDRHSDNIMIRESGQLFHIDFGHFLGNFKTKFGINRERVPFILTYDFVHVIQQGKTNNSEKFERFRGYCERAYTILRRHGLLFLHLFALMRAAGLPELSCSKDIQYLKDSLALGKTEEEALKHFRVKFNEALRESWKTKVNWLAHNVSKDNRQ
Sequence (P27986 whole entry partner): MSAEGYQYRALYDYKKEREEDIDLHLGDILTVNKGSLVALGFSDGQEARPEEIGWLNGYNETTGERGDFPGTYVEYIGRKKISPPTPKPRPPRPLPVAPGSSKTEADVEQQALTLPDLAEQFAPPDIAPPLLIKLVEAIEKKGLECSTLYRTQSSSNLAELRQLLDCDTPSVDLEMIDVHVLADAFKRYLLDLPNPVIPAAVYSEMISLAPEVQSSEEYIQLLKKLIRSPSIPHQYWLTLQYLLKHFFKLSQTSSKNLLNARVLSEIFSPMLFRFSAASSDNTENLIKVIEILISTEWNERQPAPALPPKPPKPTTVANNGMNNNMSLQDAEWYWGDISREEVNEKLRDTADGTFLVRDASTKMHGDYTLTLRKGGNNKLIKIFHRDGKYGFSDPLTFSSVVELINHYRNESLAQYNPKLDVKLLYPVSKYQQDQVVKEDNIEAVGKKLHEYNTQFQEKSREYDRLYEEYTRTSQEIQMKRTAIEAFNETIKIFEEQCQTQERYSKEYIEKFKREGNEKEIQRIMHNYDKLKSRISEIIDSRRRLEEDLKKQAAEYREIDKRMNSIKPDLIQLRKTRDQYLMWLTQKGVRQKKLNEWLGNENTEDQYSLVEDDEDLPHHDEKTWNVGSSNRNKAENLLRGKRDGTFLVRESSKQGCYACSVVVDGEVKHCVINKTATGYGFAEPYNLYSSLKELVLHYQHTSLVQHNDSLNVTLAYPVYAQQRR
Test description: Transcreener KINASE Assay, kinase inhibition of p110δ/p85α
Assay type: biochemical
Condition set: 1 uM test compound
Description: PI3K kinases including p110α/p85α, p110δ/p85α and p110γ are purchased from Invitrogen, and p110β/p85α is from Millipore. Primary screening data and IC50 values are measured using Transcreener™ KINASE Assay (Bellbrook, Catalog #3003-10K). […] It is a universal, homogenous, high throughput screening (HTS) technology using a far-red, competitive fluorescence polarization immunoassay based on the detection of ADP to monitor the activity of enzymes that catalyze group transfer reactions. […]
Assay readout: PI3Kδ IH % @ 1 uM (%)

INSERT INTO measurements (compound, assay_readout, meas_value) VALUES
  ('CC(C)Cn1c([C@@H]2CCN2c2ncnc3[nH]cc(C#N)c23)nn2ccc(Cl)c2c1=O', 'PI3Kδ IH % @ 1 uM', 98.8),
  ('CC(=O)c1cnc(N)nc1N1C[C@H](C)[C@H]1c1nn2ccc(Cl)c2c(=O)n1-c1ccc(F)cc1', 'PI3Kδ IH % @ 1 uM', 94),
  ('O=c1c2c(Cl)ccn2nc([C@@H]2CCCN2c2ncnc3[nH]cnc23)n1CCN1CCOCC1', 'PI3Kδ IH % @ 1 uM', 92.8),
  ('O=c1c2c(Cl)ccn2nc([C@@H]2CCCN2c2ncnc3[nH]cnc23)n1-c1ccncn1', 'PI3Kδ IH % @ 1 uM', 94.8),
  ('N#Cc1cnc(N)nc1N1C[C@@H](F)C[C@H]1c1nn2ccc(Cl)c2c(=O)n1-c1ccccc1', 'PI3Kδ IH % @ 1 uM', 97.6),
  ('C[S+]([O-])c1c[nH]c2ncnc(N3CC[C@H]3c3nn4ccc(Cl)c4c(=O)n3-c3ccccc3)c12 (stereo partly drawn)', 'PI3Kδ IH % @ 1 uM', 97.1),
  ('C[S@+]([O-])c1c[nH]c2ncnc(N3C[C@@H](C#N)C[C@H]3c3nn4ccc(Cl)c4c(=O)n3-c3cccc(F)c3)c12', 'PI3Kδ IH % @ 1 uM', 96.9),
  ('N#Cc1cnc(N)nc1N1CC(=O)C[C@H]1c1nn2ccc(Cl)c2c(=O)n1-c1cccc(F)c1', 'PI3Kδ IH % @ 1 uM', 93.7),
  ('CC(=O)c1c(N)nc(N)nc1N1CCC1c1nn2ccc(Cl)c2c(=O)n1-c1ccccc1 (stereo not drawn)', 'PI3Kδ IH % @ 1 uM', 97.73),
  ('COc1cccc(-n2c([C@@H]3CCCN3c3ncnc4[nH]cnc34)nn3ccc(Cl)c3c2=O)c1', 'PI3Kδ IH % @ 1 uM', 99.1),
  ('Nc1nc(N2CC[C@H]2c2nn3ccc(Cl)c3c(=O)n2-c2ccccc2)n2nccc2n1', 'PI3Kδ IH % @ 1 uM', 96.8);
